# ASSAYED_TARGET: human M1 receptor (hCHRM1) (Homo sapiens, UniProt P11229)
# Construct: expressed in transfected cells
# Sequence (P11229 1-460): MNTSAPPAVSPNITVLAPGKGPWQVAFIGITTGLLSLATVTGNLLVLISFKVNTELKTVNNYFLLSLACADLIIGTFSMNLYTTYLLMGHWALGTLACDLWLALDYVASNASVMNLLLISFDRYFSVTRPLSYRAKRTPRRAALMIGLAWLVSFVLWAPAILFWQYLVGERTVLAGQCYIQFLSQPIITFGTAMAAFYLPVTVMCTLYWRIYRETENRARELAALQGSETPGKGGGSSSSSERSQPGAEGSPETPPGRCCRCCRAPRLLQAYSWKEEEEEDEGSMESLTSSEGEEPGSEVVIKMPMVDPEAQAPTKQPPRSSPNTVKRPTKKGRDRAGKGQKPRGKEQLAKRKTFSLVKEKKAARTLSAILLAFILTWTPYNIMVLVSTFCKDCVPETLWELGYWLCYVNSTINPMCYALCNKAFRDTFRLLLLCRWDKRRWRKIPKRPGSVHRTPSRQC
# PROCEDURE_TEXT: Measurement of M1 receptor positive allosteric modulator (M1PAM) activity, Ca2+ fluorescence by FLIPRtetra (Experimental Example 1)
# Format: cell-based
# STATED_CONDITIONS: inflection point of concentration-dependent curve, in presence of acetylcholine at EC20 (0.8-1.0 nM), CHO-K1 cells expressing hCHRM1, read-out: IP value
MEASURE: EC50
Provide a numeric answer, followed by its unit.

// known answers, use as guide
compound="Cc1c(Cc2ccc(Cl)nc2)cc2c(c1F)OCN([C@H]1COCC[C@@H]1O)C2=O [Example 19]" assay_value="45 nM"
compound="Cc1cc2c(cc1Cc1ccc(-c3cn(C)nc3C)nc1)C(=O)N(CC1CCCO1)CO2 (stereo not shown) [Example 82]" assay_value="90 nM"
compound="Cc1cc2c(cc1Cc1ccc(-n3cccn3)cc1)C(=O)N([C@H]1COCC[C@@H]1O)CO2 [Example 50]" assay_value="8.6 nM"
compound="Cc1c(Cc2ccc(-n3ccnc3)nc2)cc2c(c1Cl)OCN([C@H]1CCC[C@@H]1O)C2=O (relative stereo) [Example 39]" assay_value="1.5 nM"
compound="CCc1ccc(Cc2cc3c(c4ccccc24)OCN([C@H]2COCC[C@@H]2O)C3=O)cn1 [Example 38]" assay_value="1.5 nM"
compound="Cc1c(Cc2ccc(-n3cccn3)cc2)cc2c(c1C)OCN([C@H]1CCCC[C@@H]1O)C2=O (relative stereo) [Example 53]" assay_value="11 nM"

-- ask Given the compound Cc1ccc(Cc2cc3c(c(C)c2C)OCN([C@H]2COCC[C@@H]2O)C3=O)cn1 (single isomer, unassigned) [Example 7] , write its reported EC50.
-- reply 7.9 nM

-- ask Given the compound Cc1ccc(Cc2cc3c(c4ccccc24)OCN([C@H]2CCC[C@@H]2O)C3=O)cn1 [Example 40] , write its reported EC50.
-- reply 1.6 nM

-- ask Given the compound Cc1c(Cc2ccc(-c3cnn(C)c3)nc2)cc2c(c1C)OCN([C@H]1CCCC[C@@H]1O)C2=O (relative stereo) [Example 49] , write its reported EC50.
-- reply 8 nM

-- ask Given the compound Cc1ccc(Cc2cc3c(c(Cl)c2C)OCN([C@H]2CCC[C@@H]2O)C3=O)cn1 [Example 25] , write its reported EC50.
-- reply 4.2 nM

-- ask Given the compound Cc1c(Cc2ccc(Cl)nc2)cc2c(c1Cl)OCN(CC1CCCO1)C2=O (stereo not shown) [Example 87] , write its reported EC50.
-- reply 160 nM

-- ask Given the compound Cc1ccc(Cc2cc3c(c(F)c2C)OCN([C@H]2COCC[C@@H]2O)C3=O)cn1 [Example 32] , write its reported EC50.
-- reply 37 nM

-- ask Given the compound COc1ccc(Cc2cc3c(c(F)c2C)OCN([C@H]2CCC[C@@H]2O)C3=O)cn1 [Example 18] , write its reported EC50.
-- reply 37 nM

-- ask Given the compound COc1ccc(Cc2cc3c(c(C)c2C)OCN([C@H]2COCC[C@@H]2O)C3=O)cn1 [Example 29] , write its reported EC50.
-- reply 14 nM

-- ask Given the compound Cc1c(Cc2ccc(Cl)nc2)cc2c(c1C)OCN([C@H]1COCC[C@@H]1O)C2=O (relative stereo) [Example 31] , write its reported EC50.
-- reply 17 nM

-- ask Given the compound Cc1cc2c(cc1Cc1ccc(-n3cccn3)cc1)C(=O)N([C@H]1CCC[C@@H]1O)CO2 [Example 35] , write its reported EC50.
-- reply 5.8 nM
